Biological target: PDE7B (Homo sapiens)
Sequence (Q9NP56 whole entry, species assumed): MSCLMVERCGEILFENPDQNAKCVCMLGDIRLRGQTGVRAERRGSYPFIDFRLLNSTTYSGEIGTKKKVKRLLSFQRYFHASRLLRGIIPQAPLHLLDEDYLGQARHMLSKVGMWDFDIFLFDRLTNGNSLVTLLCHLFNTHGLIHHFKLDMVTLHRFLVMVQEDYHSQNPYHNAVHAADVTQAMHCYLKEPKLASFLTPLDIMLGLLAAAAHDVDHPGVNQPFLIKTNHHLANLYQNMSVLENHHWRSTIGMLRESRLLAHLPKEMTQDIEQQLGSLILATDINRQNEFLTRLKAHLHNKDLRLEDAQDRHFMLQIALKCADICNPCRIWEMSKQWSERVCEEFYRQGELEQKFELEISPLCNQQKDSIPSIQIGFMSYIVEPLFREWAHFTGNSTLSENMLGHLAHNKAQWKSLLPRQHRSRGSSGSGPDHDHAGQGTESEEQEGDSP
measured parameter: pIC50
// scale note: pIC50 = -log10(conc_M); give the bare number

Ask: So what does the record say about pIC50 for N#Cc1sc2sc(C#N)c(-c3ccco3)c2c1N [BC30] ?
Reply: 5.43
